Attribution: patent US20220411491A1

Each entry below carries its recorded CAR-J2 EC50.
measuredOn: human GPRC5D (human, UniProt Q9NZD1 1-345)
Sequence (Q9NZD1 whole entry): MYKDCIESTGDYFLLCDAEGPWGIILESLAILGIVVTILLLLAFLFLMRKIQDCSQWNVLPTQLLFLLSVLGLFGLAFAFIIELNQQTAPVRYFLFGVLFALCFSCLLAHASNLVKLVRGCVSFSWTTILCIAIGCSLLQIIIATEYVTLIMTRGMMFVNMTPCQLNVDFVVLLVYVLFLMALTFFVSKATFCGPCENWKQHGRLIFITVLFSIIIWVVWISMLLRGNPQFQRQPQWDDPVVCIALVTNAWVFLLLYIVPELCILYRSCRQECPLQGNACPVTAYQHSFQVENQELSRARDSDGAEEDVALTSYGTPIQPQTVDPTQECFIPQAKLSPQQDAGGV
methodSummary: cell-based or functional assay

[
  {
    "binder": "P1AE5754 (antibody, V domains shown) VH: EVQLVESGGGVVQPGRSLRLSCAASGFSFSNYGMAWVRQAPGKGLEWVASISTGGGNTYYADSVKGRFTISRDNAKNTLYLQMNSLRAEDTAVYYCTRHDRGGLYWGQGTMVTVSS VL: EIVLTQSPGTLSLSPGERATLSCRASKSLLHSNGITYVYWYQQKPGQAPRLLIYRMSNLASGIPDRFSGSGSGTDFTLTISRLEPEDFAVYHCGQLLENPYTFGQGTKLEIK",
    "CAR-J2 EC50 [µg/mL]": 0.00889
  },
  {
    "binder": "P1AE5743 (antibody, V domains shown) VH: EVQLVESGGGVVQPGRSLRLSCAASGFSFSNYGMAWVRQAPGKGLEWVASISTGGGNTYYRDSVKGRFTISRDNAKNTLYLQMNSLRAEDTAVYYCTRHDRGGLYWGQGTMVTVSS VL: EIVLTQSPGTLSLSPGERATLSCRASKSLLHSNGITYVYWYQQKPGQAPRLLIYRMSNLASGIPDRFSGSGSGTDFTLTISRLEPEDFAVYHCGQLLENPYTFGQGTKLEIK",
    "CAR-J2 EC50 [µg/mL]": 0.583
  },
  {
    "binder": "P1AE5764 (antibody, V domains shown) VH: EVQLVESGGGLVQPGGSLRLSCAASGFSFSNYGMAWVRQAPGKGLEWVASISTGGGNTYYADSVKGRFTISRDNAKNTLYLQMNSLRAEDTAVYYCTRHDRGGLYWGQGTMVTVSS VL: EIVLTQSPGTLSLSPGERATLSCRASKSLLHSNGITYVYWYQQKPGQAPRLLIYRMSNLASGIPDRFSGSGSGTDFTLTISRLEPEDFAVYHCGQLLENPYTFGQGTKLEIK",
    "CAR-J2 EC50 [µg/mL]": 0.0782
  },
  {
    "binder": "P1AE5740 (antibody, V domains shown) VH: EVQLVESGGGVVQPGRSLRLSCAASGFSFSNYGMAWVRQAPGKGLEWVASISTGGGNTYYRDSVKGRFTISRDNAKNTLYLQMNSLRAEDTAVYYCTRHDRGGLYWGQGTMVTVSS VL: DIVMTQSPLSLPVTPGEPASISCRSSKSLLHSNGITYVYWYLQKPGKSPQVLIYRMSNLASGVPDRFSGSGSGTDFTLKISRVEAEDVGVYHCGQLLENPYTFGQGTKLEIK",
    "CAR-J2 EC50 [µg/mL]": 0.00896
  },
  {
    "binder": "P1AE5734 (antibody, V domains shown) VH: QVQLVESGGGVVQPGRSLRLSCAASGFSFSNYGMAWVRQAPGKGLEWVASISTGGGNTYYRDSVKGRFTISRDNSKNTLYLQMNSLRAEDTAVYYCTRHDRGGLYWGQGTMVTVSS VL: DIVMTQSPLSLPVTPGEPASISCRSSKSLLHSNGITYVYWYLQKPGQSPQVLIYRMSNLASGVPDRFSGSGSGTDFTLKISRVEAEDVGVYHCGQLLENPYTFGQGTKLEIK",
    "CAR-J2 EC50 [µg/mL]": 0.0415
  }
]
